meta.source: patent US20230167118A1

# assayTarget: BTK (Homo sapiens)
# Construct: High control=Cell group with added DMSO and without compound, indicating microplate readings without BTK degradation; endogenous in cells; host or cells: TMD-8 cells
# Sequence (Q06187 whole entry): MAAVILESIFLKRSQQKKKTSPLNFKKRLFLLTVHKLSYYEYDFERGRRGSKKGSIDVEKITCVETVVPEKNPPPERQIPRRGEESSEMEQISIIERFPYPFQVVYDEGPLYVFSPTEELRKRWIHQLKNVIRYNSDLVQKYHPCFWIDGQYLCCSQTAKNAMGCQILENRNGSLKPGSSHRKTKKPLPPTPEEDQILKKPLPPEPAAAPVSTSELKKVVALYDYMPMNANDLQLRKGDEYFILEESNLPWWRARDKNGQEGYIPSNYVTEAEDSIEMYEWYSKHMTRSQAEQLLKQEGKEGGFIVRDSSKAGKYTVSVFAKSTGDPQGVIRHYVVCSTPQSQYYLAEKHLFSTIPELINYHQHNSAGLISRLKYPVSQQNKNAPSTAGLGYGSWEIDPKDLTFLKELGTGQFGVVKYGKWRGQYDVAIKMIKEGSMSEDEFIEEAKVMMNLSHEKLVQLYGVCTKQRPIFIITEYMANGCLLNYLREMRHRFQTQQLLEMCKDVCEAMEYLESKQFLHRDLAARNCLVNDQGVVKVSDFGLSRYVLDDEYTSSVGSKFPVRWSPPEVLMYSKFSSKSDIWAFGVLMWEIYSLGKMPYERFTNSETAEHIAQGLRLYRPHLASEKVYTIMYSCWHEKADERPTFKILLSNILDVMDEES
# assaySummary: Cell Degradation: BTK degradation in TMD-8 cells, HTRF assay
# Format: cell-based
# conditionDetails: 6 h treatment, IC50 (DC50) of BTK degradation
Counter-ions that a name gives are not always drawn.
Reported DC50 values for the following molecules.

>  <molecule>
Cc1cc(-c2ncnc3[nH]c(-c4ccc(N5CCN(CC6CCN(c7ccc(N8CCC(=O)NC8=O)cc7)CC6)CC5)cn4)cc23)ccc1[C@@H](C)NC(=O)c1noc(C2(C)CC2)n1

>  <unitsOfMeasure>
nM

>  <DC50>
1.01

$$$$
>  <molecule>
Cc1cc(-c2ncnc3[nH]c(-c4c(C)nn(C5CCN(CC6CCN(c7ccc(N8CCC(=O)NC8=O)cc7)CC6)CC5)c4C)cc23)ccc1[C@@H](C)NC(=O)c1cn(C(C)(C)C)nn1

>  <unitsOfMeasure>
nM

>  <DC50>
0.23

$$$$
>  <molecule>
Cc1cc(-c2ncnc3[nH]c(-c4ccc(N5CCN(CC6CCN(c7ccc(N8CCC(=O)NC8=O)c(C)c7)CC6)CC5)nc4)nc23)ccc1[C@@H](C)NC(=O)c1noc(C(C)(C)C)n1

>  <unitsOfMeasure>
nM

>  <DC50>
0.21

$$$$
>  <molecule>
Cc1cc(N2CCC(CN3CCN(c4ccc(-c5cc6c(-c7ccc([C@@H](C)NC(=O)c8noc(C(C)(C)C)n8)c(C)c7F)ncnc6[nH]5)cn4)CC3)CC2)ccc1N1CCC(=O)NC1=O

>  <unitsOfMeasure>
nM

>  <DC50>
1.23

$$$$
>  <molecule>
Cc1cc(-c2ncnc3[nH]c(-c4ccc(N5CCN(CC6CCN(c7ccc(N8CCC(=O)NC8=O)c(C)c7)CC6)CC5)nc4)cc23)c(F)cc1[C@@H](C)NC(=O)c1noc(C(C)(C)C)n1

>  <unitsOfMeasure>
nM

>  <DC50>
0.79

$$$$
>  <molecule>
Cc1cc(-c2ncnc3[nH]c(-c4ccc(N5CCN(CC6CCN(c7ccc(N8CC(=O)NC8=O)cc7)CC6)CC5)cn4)cc23)ccc1[C@@H](C)NC(=O)c1nc(C(C)(C)C)no1

>  <unitsOfMeasure>
nM

>  <DC50>
2.7

$$$$
>  <molecule>
Cc1cc(-c2ncnc3[nH]c(-c4ccc(C5CN(CC6CCN(c7ccc(N8CCC(=O)NC8=O)cc7)CC6)C5)nc4)cc23)ccc1[C@@H](C)NC(=O)c1nc(C(C)(C)C)no1

>  <unitsOfMeasure>
nM

>  <DC50>
0.74

$$$$
>  <molecule>
Cc1cc(-c2ncnc3[nH]c(-c4ccc(N5CCN(C6CC(c7ccc(C8CCC(=O)NC8=O)cc7)C6)CC5)cc4)cc23)ccc1[C@@H](C)NC(=O)c1nc(C(C)(C)C)no1 (stereo partly shown)

>  <unitsOfMeasure>
nM

>  <DC50>
2.02

$$$$
>  <molecule>
Cc1cc(-c2ncnc3[nH]c(-c4ccc(C5CCN(CC6CCN(c7ccc(N8CCC(=O)NC8=O)cc7)CC6)CC5)cc4)cc23)ccc1[C@@H](C)NC(=O)c1nc(C(C)(C)C)no1

>  <unitsOfMeasure>
nM

>  <DC50>
1.3

$$$$
>  <molecule>
Cc1cc(-c2ncnc3[nH]c(-c4ccc(N5CCN(CC6CCN(c7cccc(N8CCC(=O)NC8=O)c7)CC6)CC5)cn4)cc23)ccc1[C@@H](C)NC(=O)c1nc(C(C)(C)C)no1

>  <unitsOfMeasure>
nM

>  <DC50>
1.2

$$$$
>  <molecule>
Cc1cc(-c2ncnc3[nH]c(-c4ccc(N5CCN(CC6CCN(c7ccc(N8CCC(=O)NC8=O)cc7)CC6)CC5)cn4)cc23)ccc1[C@@H](C)NC(=O)c1noc(C(C)(C)C)n1

>  <unitsOfMeasure>
nM

>  <DC50>
0.8

$$$$
>  <molecule>
Cc1cc(-c2ncnc3[nH]c(-c4ccc(C5CCN(CC6CCN(c7ccc(N8CCC(=O)NC8=O)cc7F)CC6)CC5)cc4)cc23)ccc1CNC(=O)c1nc(C(C)(C)C)no1 [Example 39, Formate]

>  <unitsOfMeasure>
nM

>  <DC50>
1.1

$$$$
>  <molecule>
Cc1cc(-c2ncnc3[nH]c(-c4ccc(N5CCN(CC6CCN(c7ccc(N8CCC(=O)NC8=O)cc7)CC6)CC5)cn4)cc23)ccc1[C@@H](C)NC(=O)c1nnc(C(C)(C)C)o1

>  <unitsOfMeasure>
nM

>  <DC50>
0.5

$$$$
>  <molecule>
Cc1cc(-c2ncnc3[nH]c(-c4ccc(N5CCN(CC6CCN(c7ccc(N8CCC(=O)NC8=O)cc7)CC6)CC5)cc4)cc23)ccc1[C@@H](C)NC(=O)c1nc(C(C)(C)C)no1

>  <unitsOfMeasure>
nM

>  <DC50>
1.4

$$$$
>  <molecule>
CC(C)(C)c1noc(C(=O)N[C@@H]2CCc3cc(-c4ncnc5[nH]c(-c6ccc(N7CCN(CC8CCN(c9ccc(N%10CCC(=O)NC%10=O)cc9)CC8)CC7)nc6)cc45)ccc32)n1

>  <unitsOfMeasure>
nM

>  <DC50>
3.24

$$$$
>  <molecule>
Cc1cc(-c2ncnc3[nH]c(-c4ccc(N5CCN(CC6CCN(c7ccc(N8CCC(=O)NC8=O)cc7)CC6)CC5)cc4)cc23)c(F)cc1[C@@H](C)NC(=O)c1nc(C(C)(C)C)no1

>  <unitsOfMeasure>
nM

>  <DC50>
1.5

$$$$
>  <molecule>
Cc1cc(-c2ncnc3[nH]c(-c4ccc(N5CCN([C@H]6C[C@@H](c7ccc(N[C@H]8CCC(=O)NC8=O)cc7)C6)CC5)nc4)cc23)ccc1[C@@H](C)NC(=O)c1nc(C(C)(C)C)no1

>  <unitsOfMeasure>
nM

>  <DC50>
3.03

$$$$
>  <molecule>
CC(C)(C)c1noc(C(=O)N[C@@H]2CCc3cc(-c4ncnc5[nH]c(-c6ccc(N7CCN(CC8CCN(c9ccc(N%10CCC(=O)NC%10=O)cc9)CC8)CC7)cn6)cc45)ccc32)n1

>  <unitsOfMeasure>
nM

>  <DC50>
1.64

$$$$
>  <molecule>
C[C@@H](NC(=O)c1noc(C(C)(C)C)n1)c1ccc(-c2ncnc3[nH]c(-c4ccc(N5CCN(CC6CCN(c7ccc(N8CCC(=O)NC8=O)cc7)CC6)CC5)cc4)cc23)cc1F

>  <unitsOfMeasure>
nM

>  <DC50>
1.5

$$$$
